- test-summary: AUClast in Sprague-Dawley rat at 10 mg/kg, po
- Assay type: ADME, organism-based
- Design: time 0 - last, dose 10 mg/kg, route oral
- measurement-parameters: plasma
value-type: AUC(0-t) (ng·h/mL)
Answers are plain numbers, in ng·h/mL.

What value of measured AUC(0-t) is listed for `COc1ccc(-n2cnc3c(-c4ccccc4C)csc3c2=O)cc1` ?
948

---

- measurement-target: Metabotropic glutamate receptor 1 (Homo sapiens, UniProt Q13255)
- Sequence (Q13255 19-1194 limits assumed): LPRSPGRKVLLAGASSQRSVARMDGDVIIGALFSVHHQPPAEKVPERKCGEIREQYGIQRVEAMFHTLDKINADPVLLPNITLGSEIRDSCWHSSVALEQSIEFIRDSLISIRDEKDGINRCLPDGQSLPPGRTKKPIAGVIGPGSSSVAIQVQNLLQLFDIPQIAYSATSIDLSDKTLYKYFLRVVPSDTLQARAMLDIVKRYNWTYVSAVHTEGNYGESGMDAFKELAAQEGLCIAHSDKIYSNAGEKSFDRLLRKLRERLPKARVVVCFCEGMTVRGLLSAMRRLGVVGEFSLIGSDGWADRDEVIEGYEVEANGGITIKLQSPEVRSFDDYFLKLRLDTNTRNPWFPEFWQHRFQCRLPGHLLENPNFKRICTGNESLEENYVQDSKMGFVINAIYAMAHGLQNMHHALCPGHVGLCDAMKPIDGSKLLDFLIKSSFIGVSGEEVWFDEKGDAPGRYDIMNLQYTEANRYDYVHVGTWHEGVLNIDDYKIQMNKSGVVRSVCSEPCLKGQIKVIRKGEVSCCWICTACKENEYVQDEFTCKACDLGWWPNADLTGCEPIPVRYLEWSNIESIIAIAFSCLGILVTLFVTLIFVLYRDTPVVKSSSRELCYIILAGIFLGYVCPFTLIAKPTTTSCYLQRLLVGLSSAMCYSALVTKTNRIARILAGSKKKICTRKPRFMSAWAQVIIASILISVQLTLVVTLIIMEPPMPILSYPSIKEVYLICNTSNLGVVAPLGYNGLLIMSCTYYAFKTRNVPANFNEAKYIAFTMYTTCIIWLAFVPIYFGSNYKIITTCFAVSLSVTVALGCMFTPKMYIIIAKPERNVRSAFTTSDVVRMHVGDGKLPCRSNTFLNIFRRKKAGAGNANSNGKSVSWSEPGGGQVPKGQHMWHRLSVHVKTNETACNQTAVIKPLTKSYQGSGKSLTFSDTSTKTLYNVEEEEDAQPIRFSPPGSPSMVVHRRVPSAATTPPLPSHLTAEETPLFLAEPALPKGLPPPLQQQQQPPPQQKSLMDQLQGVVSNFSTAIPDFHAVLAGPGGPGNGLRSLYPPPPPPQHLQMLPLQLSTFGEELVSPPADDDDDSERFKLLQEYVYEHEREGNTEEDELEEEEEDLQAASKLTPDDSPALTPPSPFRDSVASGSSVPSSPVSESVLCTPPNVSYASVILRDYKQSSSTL
- test-summary: Antagonist activity at mGluR1 (unknown origin) expressed in Chem-3 cells assessed as inhibition of glutamate-induced increased intracellular calcium ion level at 10 uM after 18 hrs by fluorescence-based FDSS6000 assay
- Type: functional, cell-based
For each entry below, report its inhibition value.
One number for each entry, in %.

Solved cases below.
{"columns": ["compound-smiles", "inhibition / %"],
 "data": [
  ["COc1ccc(-n2cnc3c(-c4ccccc4OC)csc3c2=O)cc1", 90.4],
  ["N#Cc1cccc(-n2cnc3c(-c4ccccc4)csc3c2=O)c1", 15.9],
  ["O=c1c2scc(-c3ccccc3)c2ncn1-c1ccc([N+](=O)[O-])cc1", 11.1],
  ["COc1ccc(-n2cnc3c(-c4cccc(Cl)c4)csc3c2=O)cc1", 60.8]
]}

List the reported inhibition of each molecule below.
1. COc1ccc(-c2csc3c(=O)n(-c4ccc(OC)cc4)cnc23)cc1
2. COc1ccc(-n2cnc3c(-c4ccccc4F)csc3c2=O)cc1
3. Cc1ccccc1-n1cnc2c(-c3ccccc3)csc2c1=O
4. COc1ccc(-n2cnc3c(-c4ccccc4Cl)csc3c2=O)cc1
5. O=c1c2scc(-c3ccccc3)c2ncn1-c1cccc(Cl)c1

35.8
92.7
87.1
91.8
94.8
